From: PubChem BioAssay AID602251

target: anti-desmoglein 3 scFv antibody binding to human desmoglein 3 (DSG3); experiment: inhibitors of anti-DSG3 scFv binding to DSG3, dose response, biochemical, DSG3-coupled beads, scFv-GFP, flow cytometry, Cherry Pick 1 (AID 602251)
outcome measure: pEC50
Answers are plain numbers, as −log10 of the molar value.

1. Nn1c(SCC(=O)Nc2cc(C(F)(F)F)ccc2Cl)nncc1=O    4.53

Could I get pEC50 for every one of these entries?
1. NC(=O)c1ccsc1NC(=O)COC(=O)c1cc(=O)[nH]c2ccccc12
2. Cc1ccc(NC(=O)CN2C(=O)N/C(=C/c3cccn3-c3ccc(C(=O)O)cc3)C2=O)cc1
3. CCOC(=O)Cn1c(=NC(=O)c2cccs2)sc2cc(C(=O)OC)ccc21
4. O=c1c2c([N+](=O)[O-])cc([N+](=O)[O-])cc2sn1Cc1ccccc1
5. Nc1ccc2nc3c(=O)[nH]c(=S)[nH]c3nc2c1
6. COc1ccccc1NC(=O)c1cc(C(=O)Nc2ccccc2OC)cc([N+](=O)[O-])c1
7. COc1ccc2cc(-c3cc(C(=O)OCC(=O)NC4CCS(=O)(=O)C4)c4ccccc4n3)ccc2c1 (stereo not given)

// result
4.52
4.32
4.58
5.01
4.41
4.60
4.72

Hello, I would appreciate it if you could give pEC50 for each entry below.
1. COc1ccc(-n2c(SCC(=O)Nc3nccs3)nnc2-c2ccc(Cl)cc2)cc1
2. O=C(O)c1cccc(-n2cccc2/C=C2/NC(=O)N(c3ccc(Cl)cc3)C2=O)c1

// result
4.55
4.93
